Test system: Escherichia coli IAI1
assay_notes: growth AUC relative to DMSO control (median of replicates) (fraction); higher = more growth (less inhibition), active = hit call of the paper
measurement_setup: 20 µM; 24 h
So basically: growth AUC at 1 or higher? That is 1 (yes). Lower than 1? That is 0 (no).

Examples with answers:
- compound: "CCOP(=S)(Oc1ccc([N+](=O)[O-])cc1)c1ccccc1 (configuration not stated)"
  category_label: "1 (yes)"
- compound: "[CH3][Hg][Cl]"
  category_label: "1 (yes)"
- compound: "Oc1ccc(Cl)cc1"
  category_label: "0 (no)"

Here is the next item to consider.
State whether the measured growth AUC reaches 1, counting equality as reaching it, for `C=C(C)CN(CC)c1c([N+](=O)[O-])cc(C(F)(F)F)cc1[N+](=O)[O-]`
0 (no)
